Item-by-item account of pEC50
Target of assay: Peroxisome proliferator-activated receptor delta (Homo sapiens, UniProt Q03181)
Sequence (Q03181 whole entry): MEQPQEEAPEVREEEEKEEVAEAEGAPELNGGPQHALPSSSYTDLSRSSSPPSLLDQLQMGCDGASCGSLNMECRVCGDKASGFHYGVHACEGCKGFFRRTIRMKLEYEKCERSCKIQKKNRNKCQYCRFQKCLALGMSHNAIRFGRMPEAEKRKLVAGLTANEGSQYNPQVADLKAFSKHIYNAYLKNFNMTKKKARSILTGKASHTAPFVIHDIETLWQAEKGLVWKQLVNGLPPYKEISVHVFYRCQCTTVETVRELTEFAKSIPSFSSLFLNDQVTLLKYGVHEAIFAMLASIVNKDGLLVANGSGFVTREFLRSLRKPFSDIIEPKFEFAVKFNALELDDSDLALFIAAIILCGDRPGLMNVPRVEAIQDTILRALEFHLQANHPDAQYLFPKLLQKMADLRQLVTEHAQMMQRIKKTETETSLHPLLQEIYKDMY
Reminder that pEC50 is minus the log10 of a molar concentration.

INSERT INTO assay_data (compound_structure_string, target_of_assay, numeric_readout) VALUES
  ('Cc1onc(-c2ccc(CC(=O)O)cc2Cl)c1C(=O)NCCOc1ccc(Cl)cc1Cl', 'Peroxisome proliferator-activated receptor delta (Homo sapiens, UniProt Q03181)', 6.51),
  ('CC(C)(C)c1onc(-c2ccc(CC(=O)O)cc2Cl)c1C(=O)NCCOc1ccc(Cl)cc1Cl', 'Peroxisome proliferator-activated receptor delta (Homo sapiens, UniProt Q03181)', 5.59),
  ('CCc1onc(-c2ccc(CC(=O)O)cc2Cl)c1C(=O)NCCOc1ccc(Cl)cc1Cl', 'Peroxisome proliferator-activated receptor delta (Homo sapiens, UniProt Q03181)', 6.96);

Could you tell me which pEC50 is on file for O=C(O)Cc1ccc(-c2noc(C3CC3)c2C(=O)NCCOc2ccc(Cl)cc2Cl)c(Cl)c1 ?
7.52

// query pEC50 value for entry O=C(O)Cc1ccc(-c2noc(-c3ccccc3)c2COCCOc2ccc(Cl)cc2Cl)c(Cl)c1
6.72

Please look up its pEC50: CN(CCOc1ccc(Cl)cc1Cl)C(=O)c1c(-c2ccc(CC(=O)O)cc2Cl)noc1-c1ccccc1
5.44

###

Target of assay: Peroxisome proliferator-activated receptor delta (Homo sapiens, UniProt Q03181)
Measurement kind: EC50
Give the figure together with its unit, number first.

Look up EC50: Cc1onc(-c2ccc(CC(=O)O)cc2Cl)c1COCCOc1ccc(C(F)(F)F)cc1[N+](=O)[O-]
130 nM

// query EC50 value for entry CC(C)c1onc(-c2ccc(CC(=O)O)cc2Cl)c1C(=O)NCCOc1ccc(Cl)cc1Cl
90 nM

Need EC50, item O=C(O)Cc1ccc(-c2noc(-c3ccccc3)c2C(=O)NCCOc2ccc(Cl)cc2Cl)c(Cl)c1
80 nM
